experiment: Ocular pharmacokinetic studies in rats; type: in vivo, brown Norway rats; conditions: Brown Norway, rat, in vivo, 2 mg/kg, 2 mpk PO, read-out: T½ (converted)
Recorded Metric: half-life (h)
# output: bare number, implied unit h

// lookup half-life for COc1cc(C)c2[nH]ccc2c1CN1CCC2(CC1c1ccc(C(=O)O)cc1)CC2(F)F (single isomer, unassigned) [8 (Isomer 1)]
6.4

* * *

Provide the recorded t1/2 for the entries that follow.
molecular target: Recombinant human Factor B catalytic domain (Homo sapiens (Human), UniProt P00751); assay: Target residence time of Factor B inhibitors by surface plasmon resonance (SPR); details: binding half-life ln2/koff
Sequence (P00751 470-764): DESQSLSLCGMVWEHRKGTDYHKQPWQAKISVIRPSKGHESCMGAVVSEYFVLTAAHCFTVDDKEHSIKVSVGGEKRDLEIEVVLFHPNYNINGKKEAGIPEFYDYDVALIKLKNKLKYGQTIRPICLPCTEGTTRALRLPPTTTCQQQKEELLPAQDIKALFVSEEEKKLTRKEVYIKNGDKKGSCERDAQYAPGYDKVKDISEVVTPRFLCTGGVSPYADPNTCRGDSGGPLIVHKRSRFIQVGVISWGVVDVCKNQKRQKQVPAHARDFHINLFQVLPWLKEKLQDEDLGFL
# output: bare number, implied unit min

// lookup t1/2 for COc1cc(C)c2[nH]ccc2c1CN1CCC2(C[C@H]1c1ccc(-c3noc(=O)[nH]3)cc1)CC(F)(F)C2 (single isomer, unassigned) [47 (Isomer 1)]
47.7

Again, but for COc1cc(C)c2[nH]ccc2c1CN1CC2CC3(CC3)CC2C1c1ccc(C(=O)O)cc1 (single isomer, unassigned) [29 (Isomer 1)]
2.72

Again, but for `Cc1cc(C2CC2)c(CN2CCC3(C[C@H]2c2ccc(C(=O)O)cc2)CC(F)(F)C3)c2cc[nH]c12`
72.87

Again, but for COc1cc(C)c2[nH]ccc2c1CN1CCC2(CC1c1ccc(C(=O)O)cc1)CC2F (single isomer, unassigned) [27 (Isomer 2)]
3.55

Again, but for `COc1cc(C)c2[nH]ccc2c1CN1CCC2(C[C@H]1c1ccc(C(=O)O)cc1C)CC(F)(F)C2`
71.28

Again, but for COc1cc(C)c2[nH]ccc2c1CN1CCC2(CC1c1ccc(C(=O)O)cc1)CC2F (single isomer, unassigned) [27 (Isomer 1)]
2.2

* * *

target: Recombinant human Factor B catalytic domain (Homo sapiens (Human), UniProt P00751); assay: Factor B binding assay by TR-FRET; settings: Factor B TR-FRET IC50 (nM), 10 nM his-tagged Factor B catalytic domain, 100 nM tracer, 1 h
Recorded Metric: IC50 (nM)
# output: bare number, implied unit nM

// lookup IC50 for COc1cc(C)c2[nH]ccc2c1CN1CC2(CCOC2)CC1c1ccc(C(=O)O)cc1 (single isomer, unassigned) [28 (Isomer 2)]
81.5

Again, but for Cc1cc(C)c2[nH]ccc2c1CN1CC2(CCCCC2)C1c1ccc(C(=O)O)cc1 (stereo not shown)
305

Again, but for COc1cc(C)c2[nH]ccc2c1CN1CCC2(CC1c1ccc(C(=O)O)cc1)CC2F (single isomer, unassigned) [27 (Isomer 2)]
5.3

Again, but for COc1cc(C)c2[nH]ccc2c1CN1CCC2(CC1c1ccc(C(=O)O)cc1)CC2(F)F (single isomer, unassigned) [8 (Isomer 2)]
245

Again, but for Cc1cc(C)c2[nH]ccc2c1CN1CCC(C(F)F)CC1c1ccc(C(=O)O)cc1 (single isomer, unassigned) [6 (Isomer 2)]
142

Again, but for Cc1cc(C)c2[nH]ccc2c1CN1CCC2(CCCO2)CC1c1ccc(C(=O)O)cc1 (single isomer, unassigned) [2 (Isomer 6)]
60

Again, but for COc1cc(C)c2[nH]ccc2c1CN1CCC2(CC1c1ccc(C(=O)O)cc1)CC2F (single isomer, unassigned) [27 (Isomer 1)]
5

Again, but for COc1cc(C)c2[nH]ccc2c1CN1CCC2(CCC(F)(F)C2)CC1c1ccc(C(=O)O)cc1 (stereo not shown)
20.1

Again, but for COc1cc(C)c2[nH]ccc2c1CN1CC2CC(C(F)F)CC2C1c1ccc(C(=O)O)cc1 (single isomer, unassigned) [39 (Isomer 3)]
7.3
